Assay: qHTS RealTime-Glo MT Cell Viability Assay in HepG2 cells - 40 hour (AID 1224870); note: nearly all actives have a fitted effect of over 50% in size
Conditions: RealTime-Glo luminescence; series mostly up to 76.8 µM
Records with an inconclusive call do not appear. The source made the active and inactive calls. Calls come from the whole dose curve; as a rule, active = well fitted cell-killing curve with a large enough effect in the repeat runs; inconclusive = weak or mixed curves, or effect the other way; inactive = flat fitted curve, though single readings scatter.
The reply should name one outcome from active, inactive

As a guide, the following entries are already answered.
Cc1c(C)c2c(c(C)c1OC(=O)CCC(=O)O)CC[C@@](C)(CCC[C@H](C)CCC[C@H](C)CCCC(C)C)O2 | active
Cc1cc(O)c(C(C)(C)C)cc1Sc1cc(C(C)(C)C)c(O)cc1C | active
CCCCC(CC)CN=C(N)NC(N)=NCCCCCCN=C(N)NC(N)=NCC(CC)CCCC (stereo unspecified) | active

Request: Dear colleague, could you share the recorded outcome for CNC(=O)c1ccccc1 when you have a moment?
Response: inactive

Request: Could you check what this test reported for CO[Si](CCCNc1ccccc1)(OC)OC ?
Response: inactive

Request: Record lookup: outcome of this test for CN(C/C=C/C#CC(C)(C)C)Cc1cccc2ccccc12 ?
Response: inactive

----------
Target: Cytochrome P450 2C19 (Homo sapiens)
Assay: Cytochrome P450 Family 2 Subfamily C Member 19 (CYP2C19) small molecule antagonists: luciferase reporter qHTS assay (AID 1671197); note: potency is the fitted concentration of half-maximal effect; nearly all actives have a fitted effect of over 65% in size
Conditions: P450-Glo CYP2C19 enzyme, luciferin luminescence, 1 h; series mostly up to 52.9 µM
Inconclusive results are not listed. The source made the active and inactive calls. Calls come from the whole dose curve; as a rule, active = well fitted inhibition curve with a large enough effect in the repeat runs; inconclusive = weak or mixed curves; inactive = no such curve, though single readings can be large or run the other way.
I'd be grateful if you could share measured Potency for these entries.

Would you please look over these solved cases?
CCCCCCCCn1sc(Cl)c(Cl)c1=O | 6.33 µM (active)
CCCCc1oc2ccc(NS(C)(=O)=O)cc2c1C(=O)c1ccc(OCCCN(CCCC)CCCC)cc1 | 9.77 µM (active)
CCCCCCCCCCCCCCCCCC[N+](C)(C)C | 89.6 µM (active)

With those in mind, consider the next compound.
Request: Request body: readout Potency, system Cytochrome P450 2C19 (Homo sapiens), query CCCCCCCCCCCCCC[P+](CCCC)(CCCC)CCCC (tested in a mixture with another compound) . Return the value.
Response: 17.9 µM (active)

----------
Assay: A CellTox Green Cytotoxicity Assay to monitor cytotoxicity in HepG2 cells - 32 hour (AID 1224883); note: nearly all actives have a fitted effect of over 50% in size; note: potency is the fitted concentration of half-maximal effect
Details: CellTox Green fluorescence; series mostly up to 76.8 µM
Inconclusive results are not listed. The source made the active and inactive calls. The call rests on the fitted dose curve; in most records, active means well fitted activation curve with a large enough effect in the repeat runs; inconclusive means weak or mixed curves; inactive means flat fitted curve, though single readings scatter.
MEASURED_ENDPOINT: Potency

In the examples that follow, each entry is paired with its recorded Potency.
CO[Si](CCCNc1ccccc1)(OC)OC | inactive
Cc1cccc(N(C)C(=S)Oc2ccc3c(c2)C2CCC3C2)c1 (stereo unspecified) | inactive
O=C1C=CC(=O)N1 | 20 µM (active)
CC(=O)SC[C@@H](Cc1ccccc1)C(=O)NCC(=O)OCc1ccccc1 | inactive
O=c1cccccc1O | inactive

// below: Potency requested for another compound
Request: What value of Potency has been reported for the following compound? NC(=O)NS(=O)(=O)c1ccc(N)cc1
Response: inactive

----------
Assay: qHTS assay to identify small molecule agonists of the androgen receptor (AR) signaling pathway in the presence of an antagonist - cell viability counter screen (AID 1259379); note: nearly all actives have a fitted effect of over 25% in size
Conditions: MDA-kb2 viability, CellTiter-Fluor, 16 h; series mostly up to 92.4 µM
Inconclusive results are not listed. Activity calls are given as the source filed them. The call rests on the fitted dose curve; in most records, active means well fitted cell-killing curve with a large enough effect in the repeat runs; inconclusive means weak or mixed curves, or effect the other way; inactive means flat fitted curve, though single readings scatter.
Answer with one of the outcomes given here: YES = active, NO = inactive

Here are 6 molecules together with their reported answers.
Nc1cc(C(F)(F)F)ccc1S | NO
Cc1cccc(CN2CCN(C(c3ccccc3)c3ccc(Cl)cc3)CC2)c1 (configuration not stated) | NO
C=CC(=O)OCCn1c(=O)n(CCOC(=O)C=C)c(=O)n(CCOC(=O)C=C)c1=O | YES
COC(=O)C1=C(C)NC(C)=C(C(=O)OCC(C)C)C1c1ccccc1[N+](=O)[O-] (configuration not stated) | NO
Nc1nc2ccccc2n1Cc1ccc(F)cc1 | YES
O=Cc1cc(O)ccc1Br | NO

Request: Look up the recorded call for CCCCCOc1ccccc1/C(=C\SC)n1ccnc1 in this test.
Response: NO

Request: I would be grateful if you could indicate the recorded call for O=C(Nc1cccc([N+](=O)[O-])c1)c1cc2ccccc2cc1O .
Response: YES

Request: Which result was noted for this molecule in the test: Oc1cccc(-c2c3nc(c(-c4cccc(O)c4)c4ccc([nH]4)c(-c4cccc(O)c4)c4nc(c(-c5cccc(O)c5)c5ccc2[nH]5)CC4)C=C3)c1
Response: YES

Request: Which result was noted for this molecule in the test: CCCN(CCC)C(=O)C(CCC(=O)OCCCN1CCN(CCOC(=O)Cc2c(C)n(C(=O)c3ccc(Cl)cc3)c3ccc(OC)cc23)CC1)NC(=O)c1ccccc1 (configuration not stated)
Response: NO

Request: Can you look up the reported call for N#CC1(c2ccc(F)cc2)CCC(=O)CC1 for me?
Response: NO

----------
Test: Caspase-3/7 induction in HepG2 cells by small molecules, qHTS cell viability counter screen (AID 1346981); note: nearly all actives have a fitted effect of over 30% in size
Details: CellTiter-Fluor fluorescence, 17 h; series mostly up to 92.4 µM
Records with an inconclusive call do not appear. Calls of active or inactive are those of the source. Calls come from the whole dose curve; as a rule, active = well fitted cell-killing curve with a large enough effect in the repeat runs; inconclusive = weak or mixed curves, or effect the other way; inactive = flat fitted curve, though single readings scatter.
Please answer using one outcome listed in label 1 (active), label 0 (inactive)

Nc1c2ccccc2nc2ccccc12 | label 0

Request: What did this assay record as the result for CC(=O)SC[C@@H](Cc1ccccc1)C(=O)NCC(=O)OCc1ccccc1 ?
Response: label 0

Request: Kindly provide the recorded test outcome for the following compound: CC(C)(C)C(=O)OCOC(=O)C1N2C(=O)CC2S(=O)(=O)C1(C)C (configuration not stated)
Response: label 0

Request: Recorded test outcome, item COc1cc(/C=C/C(=O)O[C@H]2CC[C@]34C[C@]35CC[C@]3(C)[C@@H]([C@H](C)CCC=C(C)C)CC[C@@]3(C)[C@@H]5CC[C@H]4C2(C)C)ccc1O
Response: label 0

Request: Record lookup: outcome of this test for O=C(O)c1c(Cl)cccc1Cl ?
Response: label 0

Request: For this compound, state the assay outcome: NNC(=O)c1cccc(C(=O)NN)c1
Response: label 0

Request: # fetch the recorded call for CCN(C(=O)c1cc(C)cc(OC[C@H](C)Nc2ccncc2)c1)C(C)C here
Response: label 0

Request: Could you check what this test reported for CCC(C)Nc1ccc(NC(C)CC)cc1 (configuration not stated) ?
Response: label 1

Request: For this compound, state the assay outcome: CNc1ccc(O)cc1
Response: label 1

Request: // outcome(item) with item = CCCCCCCC(=O)[O-].CCCCCCCC(=O)[O-].[Zn+2]
Response: label 0

Request: Can you look up the reported call for CSc1cnc(C)cn1 for me?
Response: label 0

Request: Per the records of this test, what outcome belongs to CCCCCCOC(=O)c1ccc(O)cc1 ?
Response: label 0

----------
Assay: qHTS assay for small molecule activators of the heat shock response signaling pathway - cell viability counter screen (AID 743209); note: potency is the fitted concentration of half-maximal effect; nearly all actives have a fitted effect of over 50% in size
Settings: HSE-bla HeLa viability, CellTiter-Glo luminescence, 5 h; series mostly up to 62.6 µM
Inconclusive results are not listed. Active and inactive are the calls of the source. Calls come from the whole dose curve; as a rule, active = well fitted cell-killing curve with a large enough effect in the repeat runs; inconclusive = weak or mixed curves, or effect the other way; inactive = no such curve, though single readings can be large or run the other way.
The categories you may choose from are 1 (yes) (active), 0 (no) (inactive)

CC[C@H]1O[C@]2(CC[C@@H]1C)C[C@@H]1C[C@@H](C/C=C(\C)C[C@@H](C)/C=C/C=C3\CO[C@@H]4[C@H](O)C(C)=C[C@@H](C(=O)O1)[C@]34O)O2 | 1 (yes)

Request: Hi, sorry to bother you, what did the test record for CC(C)(C)CC(C)(C)c1ccc(O)c(Cc2ccc(Cl)cc2Cl)c1 ?
Response: 1 (yes)

----------
Experiment: qHTS assay for small molecule agonists of the antioxidant response element (ARE) signaling pathway - cell viability counter screen (AID 743203); note: nearly all actives have a fitted effect of over 55% in size
Conditions: ARE-bla HepG2 viability, CellTiter-Glo luminescence, 16 h; series mostly up to 73.3 µM
Records with an inconclusive call do not appear. Calls of active or inactive are those of the source. Calls follow the shape of the full dose curve.
Use one of these outcomes when replying: true (1) for active, false (0) for inactive

Example results:
Oc1ccc(C2(c3ccc(O)cc3)CC3CC2C2CCCC32)cc1 (stereo not given) | true (1)
CCC1OCC(COc2ccc(Oc3ccccc3)cc2)O1 (stereo not given) | false (0)
CC(=O)N1CCN(c2ccc(OC[C@H]3CO[C@](Cn4ccnc4)(c4ccc(Cl)cc4Cl)O3)cc2)CC1 | true (1)
[Cl][Bi]([Cl])([c]1ccccc1)([c]1ccccc1)[c]1ccccc1 | true (1)
CCCCCCCCCCCCCCCC(=O)OC[C@H](O)[C@H]1OC(=O)C(O)=C1O | false (0)

Request: What call does the record list for C[n+]1cc2c3c(ccc2c2ccc4cc5c(cc4c21)OCO5)OCO3 ?
Response: true (1)

Request: Hi team, can someone confirm the assay call for C[C@@H](NCCCc1cccc(C(F)(F)F)c1)c1cccc2ccccc12 ?
Response: true (1)

Request: Hey, what did the test say about CCCN(CCC)c1c([N+](=O)[O-])cc(C(F)(F)F)c(N)c1[N+](=O)[O-] ?
Response: true (1)

Request: Just curious, what result did OCCN1CCN(CC/C=C2/c3ccccc3Sc3ccc(C(F)(F)F)cc32)CC1 get here?
Response: true (1)

Request: Entry COCCCC/C(=N\OCCN)c1ccc(C(F)(F)F)cc1 : call = ?
Response: false (0)
